Attribute: DC50
Target: IRAK4 (Homo sapiens)
Construct: Degradation of IRAK4 in OCI-LY10 was quantitatively measured using Meso Scale Discovery technology; endogenous in cells; host or cells: OCI-LY10
Sequence (Q9NWZ3 whole entry): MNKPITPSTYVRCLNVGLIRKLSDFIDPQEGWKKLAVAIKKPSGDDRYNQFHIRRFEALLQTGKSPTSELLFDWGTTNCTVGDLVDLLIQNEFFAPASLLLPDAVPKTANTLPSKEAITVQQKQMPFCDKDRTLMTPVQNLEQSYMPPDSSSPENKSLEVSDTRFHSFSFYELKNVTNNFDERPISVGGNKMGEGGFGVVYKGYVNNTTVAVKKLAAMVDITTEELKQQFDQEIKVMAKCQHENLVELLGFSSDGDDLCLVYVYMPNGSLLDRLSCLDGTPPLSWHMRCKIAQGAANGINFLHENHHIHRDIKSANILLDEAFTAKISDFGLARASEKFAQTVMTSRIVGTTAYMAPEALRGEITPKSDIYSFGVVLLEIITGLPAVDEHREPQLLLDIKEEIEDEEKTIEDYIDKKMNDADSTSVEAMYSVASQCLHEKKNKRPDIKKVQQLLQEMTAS
Assay: IRAK4 MSD Degradation in OCI-LY10
Format: cell-based
Settings: OCI-LY10 cells, 24 hrs incubation, MSD; read-out: IRAK4 degradation in OCI-LY10 at 24 hrs: DC50

>  <compound>
Cn1c(=O)n(C2CCC(=O)NC2=O)c2cccc(C#CCN3CC4CC(C3)N4C[C@H]3CC[C@H](n4cc(NC(=O)c5cnn6ccc(N7C[C@H]8C[C@@H]7CO8)nc56)c(C(F)F)n4)CC3)c21 (some centres unmarked)

>  <measurement target>
IRAK4 (Homo sapiens)

>  <DC50>
> 200 nM

$$$$
>  <compound>
Cn1c(=O)n(C2CCC(=O)NC2=O)c2cccc(C#CCCC3CCN(CC4CCC(n5cc(NC(=O)c6cnn7ccc(C8C[C@H]9C[C@@H]8CO9)nc67)c(C(F)F)n5)CC4)CC3)c21 (some centres unmarked)

>  <measurement target>
IRAK4 (Homo sapiens)

>  <DC50>
< 10 nM

$$$$
>  <compound>
Cn1c(=O)n(C2CCC(=O)NC2=O)c2cccc(N3CCN(C(=O)C[C@]4(O)CC[C@@H](n5cc6cc(NC(=O)c7cccc(C(F)(F)F)n7)ncc6n5)CC4)CC3)c21 (some centres unmarked)

>  <measurement target>
IRAK4 (Homo sapiens)

>  <DC50>
> 200 nM

$$$$
>  <compound>
Cn1c(=O)n(C2CCC(=O)NC2=O)c2ccc(N3CC(N4CCN([C@H]5CC[C@H](n6cc(NC(=O)c7cnn8ccc(N9C[C@H]%10C[C@@H]9CO%10)nc78)c(C(F)F)n6)CC5)CC4)C3)c(F)c21 (some centres unmarked)

>  <measurement target>
IRAK4 (Homo sapiens)

>  <DC50>
> 200 nM

$$$$
>  <compound>
COc1cc2nn([C@H]3CC[C@H](CN4CCC(c5cccc6c(N7CCC(=O)NC7=O)cncc56)C(F)(F)C4)CC3)cc2cc1NC(=O)c1cccc(C(F)(F)F)n1 (some centres unmarked)

>  <measurement target>
IRAK4 (Homo sapiens)

>  <DC50>
> 200 nM

$$$$
